# target-desc: Fes (UniProt P07332)
# Sequence (P07332 whole entry, looked up): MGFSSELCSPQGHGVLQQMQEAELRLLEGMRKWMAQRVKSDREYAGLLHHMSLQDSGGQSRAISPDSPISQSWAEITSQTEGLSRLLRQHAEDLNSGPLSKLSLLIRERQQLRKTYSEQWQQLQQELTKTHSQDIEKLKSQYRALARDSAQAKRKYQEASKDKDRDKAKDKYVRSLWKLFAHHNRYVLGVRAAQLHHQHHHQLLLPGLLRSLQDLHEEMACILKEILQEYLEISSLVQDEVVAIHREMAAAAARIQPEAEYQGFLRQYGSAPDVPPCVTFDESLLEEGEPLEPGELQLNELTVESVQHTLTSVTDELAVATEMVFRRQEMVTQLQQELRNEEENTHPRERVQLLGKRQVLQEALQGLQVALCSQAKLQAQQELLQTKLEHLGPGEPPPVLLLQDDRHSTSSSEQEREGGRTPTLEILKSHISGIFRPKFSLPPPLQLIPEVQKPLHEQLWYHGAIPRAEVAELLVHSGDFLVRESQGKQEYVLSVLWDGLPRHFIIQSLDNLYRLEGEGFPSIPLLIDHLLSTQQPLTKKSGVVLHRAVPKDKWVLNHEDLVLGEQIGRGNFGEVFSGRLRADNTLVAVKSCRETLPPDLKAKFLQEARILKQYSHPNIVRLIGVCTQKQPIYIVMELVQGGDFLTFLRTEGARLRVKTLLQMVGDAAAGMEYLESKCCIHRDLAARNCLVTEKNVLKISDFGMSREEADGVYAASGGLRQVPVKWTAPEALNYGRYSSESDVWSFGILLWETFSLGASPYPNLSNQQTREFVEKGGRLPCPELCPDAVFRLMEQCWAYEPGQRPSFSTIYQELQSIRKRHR
# assay-remarks: phosphorylation enrichment, bacterial display (enrichment ratio); higher = better substrate or ligand; peptides without Tyr show the background;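 further: 11-residue human phosphosite peptides and single-mutation variants displayed on the E. coli surface, counted by deep sequencing, each peptide's frequency after selection divided by its frequency in the unselected input library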;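 further: frequency after pTyr selection over input frequency; kinase dosed for 20-30% of maximal phosphorylation in three min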
experimental-endpoint: phosphorylation enrichment

SLIDMYSEVLA [OPA1_Y268_D273A]    1.03
LGSVVYAHSKE [KCNQ2_Y226]    0.596
SILAVYSKDIY [PANK2_Y400_N404I]    0.924
KIRDWYQRQRP [KRT14_Y151]    0.635
RREWFYEVIIV [BACE1_Y260_YF]    4.8
LNPDGYEKAFE [CPXM2_Y427_YF]    1.49

Give its phosphorylation enrichment value. Item: AGTIPYHAHLD [ASS1_Y291_L290P] 0.645
